Each recorded value in this set is attributed to ChEMBL document CHEMBL5376010.

- TEST PROTOCOL: Cytotoxicity against human HaCaT cells assessed as inhibition of cell growth
- Assay type: toxicity, cell-based
RESULT TYPE: pIC50
One number for each entry, as −log10 of the molar value.

Entry `O=C([O-])C(F)(F)F.[2H]C([2H])([2H])c1[nH]c2c3c1CC[N+]1=C3C3=C(N[C@@H]4C[C@@]35C(=CC(=O)[C@@H]1[C@@H]5O)S4)C2=O` , pIC50 reported as 5.21

----------
- TEST PROTOCOL: Anticancer activity against human UISO cells assessed as inhibition of cell growth
- Assay type: functional, cell-based
RESULT TYPE: pIC50
Numbers only, as −log10 of the molar value.

Entry `O=C([O-])C(F)(F)F.[2H]C([2H])([2H])c1[nH]c2c3c1CC[N+]1=C3C3=C(N[C@@H]4C[C@@]35C(=CC(=O)[C@@H]1[C@@H]5O)S4)C2=O` , pIC50 reported as 5.85

----------
- TEST PROTOCOL: Anticancer activity against human MCC26 cells assessed as inhibition of cell growth
- Format: functional, cell-based
RESULT TYPE: pIC50
Give bare numbers, as −log10 of the molar value.

Entry `O=C([O-])C(F)(F)F.[2H]C([2H])([2H])c1[nH]c2c3c1CC[N+]1=C3C3=C(N[C@@H]4C[C@@]35C(=CC(=O)[C@@H]1[C@@H]5O)S4)C2=O` , pIC50 reported as 5.70
